Test: Cmax in Beagle dog at 2.5 mg/kg, po
Format: ADME, organism-based, Canis lupus familiaris
Design: dose 2.5 mg/kg, route oral
Settings: in vivo
MEASUREMENT NAME: Cmax

> print(dat)
                               query.smiles  measurement.name  experimental.result
1  C[C@]1(c2cc(NC(=O)c3ccc(C#N)cn3)ccc2F)N=C(N)CO[C@@H]1F              Cmax            571 ng/mL

----------
Assay: Drug metabolism in dog liver microsomes at 1 uM after 15 min by HPLC-MS/MS analysis
Format: ADME, Canis lupus familiaris
Conditions: read-out: Drug metabolism
Catalogue of compounds with associated metabolised at 0.25 h, 1 µM
MEASUREMENT NAME: metabolised at 0.25 h, 1 µM (%)

> print(dat)
                               query.smiles  measurement.unit  experimental.result
1  COc1cnc(C(=O)Nc2ccc(F)c([C@@]3(C)N=C(N)CO[C@@H]3F)c2)cn1                 %                   70
2  C[C@]1(c2cc(NC(=O)c3ccc(C#N)cn3)ccc2F)N=C(N)CO[C@@H]1F                 %                    0
3  C[C@]1(c2cc(NC(=O)c3ccc(Cl)cn3)ccc2F)N=C(N)CO[C@@H]1F                 %                    7
4  Cc1cc(Cl)cnc1C(=O)Nc1ccc(F)c([C@@]2(C)N=C(N)CO[C@@H]2F)c1                 %                   21

----------
Test: Drug metabolism in mouse liver microsomes at 1 uM after 15 min by HPLC-MS/MS analysis
Type: ADME
Details: read-out: Drug metabolism
Classification field: enter met for metabolised at 0.25 h, 1 µM values not below 6%, not met for values below it.

> print(dat)
                               query.smiles  group.label
1  C[C@]1(c2cc(NC(=O)c3ccc(Cl)cn3)ccc2F)N=C(N)CO[C@@H]1F          met
2  Cc1cc(Cl)cnc1C(=O)Nc1ccc(F)c([C@@]2(C)N=C(N)CO[C@@H]2F)c1          met
3  COc1cnc(C(=O)Nc2ccc(F)c([C@@]3(C)N=C(N)CO[C@@H]3F)c2)cn1      not met
4  C[C@]1(c2cc(NC(=O)c3ccc(C#N)cn3)ccc2F)N=C(N)CO[C@@H]1F      not met

----------
Experiment: Dissociation constant, pKa of the compound by potentiometric titration assay
Format: physicochemical
MEASUREMENT NAME: pKa

> print(dat)
                               query.smiles  measurement.name  experimental.result
1  COc1cnc(C(=O)Nc2ccc(F)c([C@@]3(C4CC4)N=C(N)CO[C@@H]3F)c2)cn1               pKa                  7.8
2      C[C@]1(c2cc(N)ccc2F)N=C(N)CO[C@@H]1F               pKa                  8.1
3  C[C@]1(c2cc(NC(=O)c3ccc(C#N)cn3)ccc2F)N=C(N)CO[C@@H]1F               pKa                  7.9
4  C[C@]1(c2cc(N)ccc2F)N=C(N)CO[C@H]1C(F)(F)F               pKa                    8
5  C[C@]1(c2cc(NC(=O)c3ccc(Cl)cn3)ccc2F)N=C(N)CO[C@@H]1F               pKa                  7.9
6  COc1cnc(C(=O)Nc2ccc(F)c([C@@]3(C)N=C(N)CO[C@@H]3F)c2)cn1               pKa                  7.8
